FYI, the data here is from ChEMBL document CHEMBL1149847.

test: Inhibition of advanced glycation end products formation after 14 days; format: physicochemical
Reported IC50 is given for each of the following compounds.
Report the value in µM with no unit label.

These solved cases illustrate the format of a correct answer.
O=C(O)[C@H]1O[C@@H](Oc2cc(O)c3c(=O)cc(-c4ccc(O)cc4)oc3c2)[C@H](O)[C@@H](O)[C@@H]1O    107
N=C(N)NN [PIMAGEDINE]    961
O=c1c(O[C@@H]2O[C@H](CO)[C@@H](O)[C@H](O)[C@H]2O)c(-c2ccc(O)cc2)oc2cc(O)cc(O)c12 [ASTRAGALIN]    179

Quick check: IC50 of O=c1cc(-c2ccc(O)cc2)oc2cc(O)cc(O)c12 [APIGENIN] ?
89.9
